- STUDY TARGET: chemokine receptor CCR9 (Homo sapiens)
- Construct: expressed in transfected cells
- Sequence (P51686 whole entry): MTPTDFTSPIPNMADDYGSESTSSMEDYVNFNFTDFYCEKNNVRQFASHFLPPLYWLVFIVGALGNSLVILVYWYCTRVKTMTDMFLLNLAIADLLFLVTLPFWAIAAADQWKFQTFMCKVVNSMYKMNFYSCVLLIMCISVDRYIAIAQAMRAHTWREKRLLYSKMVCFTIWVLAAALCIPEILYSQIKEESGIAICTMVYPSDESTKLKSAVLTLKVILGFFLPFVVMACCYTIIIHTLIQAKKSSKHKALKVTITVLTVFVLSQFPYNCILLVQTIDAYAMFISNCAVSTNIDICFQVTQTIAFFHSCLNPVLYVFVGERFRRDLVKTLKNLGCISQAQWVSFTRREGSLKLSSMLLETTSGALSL
- TEST SUMMARY: CCR9 antagonistic activity, calcium flow (Fluo-4, FlexStation), CCL25 agonist
- Format: cell-based
- RECORDED CONDITIONS: 100 μM; antagonistic mode, CCL25 150 nM; read-out: Inhibition rate (%) (100 μM)
MEASURED METRIC: inhibition at 100 µM (%)
// return numeric value only (unit: %, not printed)

Worked examples, 5 molecules total:
>>> value("CNCc1ccc(-c2ccoc2)c(NS(=O)(=O)c2ccsc2)c1")
22
>>> value("CNCc1ccc(-c2ccsc2)c(NS(=O)(=O)c2ccccc2)c1")
19
>>> value("CNCc1ccc(-c2nccs2)c(NS(=O)(=O)c2ccccc2)c1")
3
>>> value("CN(c1ccc(CN)cc1-c1ccco1)S(=O)(=O)c1ccsc1")
22
>>> value("CNCc1ccc(-n2cccn2)c(NS(=O)(=O)c2ccccc2)c1")
17

Shifting focus to the molecule that follows.
Which inhibition at 100 µM value is on record for CNCc1ccc(-c2ccco2)c(NS(=O)(=O)c2ccc3c(c2)CCO3)c1 ?
0

###

- STUDY TARGET: mTRPA1 (Mus musculus)
- Sequence (Q8BLA8 whole entry): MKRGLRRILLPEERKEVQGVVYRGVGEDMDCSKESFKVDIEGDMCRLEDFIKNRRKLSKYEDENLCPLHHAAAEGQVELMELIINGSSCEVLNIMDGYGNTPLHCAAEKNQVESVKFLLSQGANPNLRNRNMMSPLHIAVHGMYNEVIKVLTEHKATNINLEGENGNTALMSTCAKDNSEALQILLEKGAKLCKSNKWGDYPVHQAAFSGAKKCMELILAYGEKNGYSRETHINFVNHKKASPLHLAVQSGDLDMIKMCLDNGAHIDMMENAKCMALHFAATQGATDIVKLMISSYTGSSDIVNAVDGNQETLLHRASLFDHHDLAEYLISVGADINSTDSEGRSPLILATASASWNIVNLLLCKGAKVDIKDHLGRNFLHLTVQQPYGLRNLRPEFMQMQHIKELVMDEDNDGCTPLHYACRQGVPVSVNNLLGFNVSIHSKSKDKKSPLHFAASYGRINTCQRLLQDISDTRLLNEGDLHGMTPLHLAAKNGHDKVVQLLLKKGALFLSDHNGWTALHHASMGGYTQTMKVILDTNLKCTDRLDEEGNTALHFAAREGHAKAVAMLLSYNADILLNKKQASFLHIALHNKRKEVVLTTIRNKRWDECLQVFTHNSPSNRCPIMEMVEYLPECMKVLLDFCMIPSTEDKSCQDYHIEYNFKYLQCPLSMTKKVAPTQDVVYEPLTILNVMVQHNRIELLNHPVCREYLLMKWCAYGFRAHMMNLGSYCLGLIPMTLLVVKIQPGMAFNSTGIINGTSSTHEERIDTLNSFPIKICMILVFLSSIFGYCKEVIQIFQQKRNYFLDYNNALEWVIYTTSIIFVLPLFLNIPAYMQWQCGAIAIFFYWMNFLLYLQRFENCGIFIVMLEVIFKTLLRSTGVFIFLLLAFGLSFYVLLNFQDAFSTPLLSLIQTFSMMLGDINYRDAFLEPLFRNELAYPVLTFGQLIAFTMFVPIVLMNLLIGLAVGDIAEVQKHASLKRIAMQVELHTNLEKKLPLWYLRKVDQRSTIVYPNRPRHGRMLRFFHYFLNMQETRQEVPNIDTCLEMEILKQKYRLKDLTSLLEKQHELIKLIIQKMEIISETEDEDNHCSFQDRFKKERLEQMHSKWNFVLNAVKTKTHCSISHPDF
- TEST SUMMARY: IonWorks Barracuda (IWB) automated patch clamp, TRPA1 inhibitory activity
- RECORDED CONDITIONS: HEK293 cells stably expressing mTRPA1, current induced by AITC, amplitude at +100 mV; read-out: IC50 (inhibition activity on TRPA1)
MEASURED METRIC: IC50

>>> value("O=S(=O)(Nc1cc(C2CCCN2)ccc1-c1ccco1)c1ccccc1 (stereo not shown) [IW]")
"1 to 5 µM"

So what's the measured IC50 for this one? CNC(C)c1ccc(-c2ccco2)c(NS(=O)(=O)c2ccccc2)c1 (stereo not shown) [IV-2]
1 to 5 µM

Entry O=S(=O)(Nc1ccc(CN2CC(F)C2)cc1-c1ccco1)c1ccsc1 [IJ-2] has what IC50?
1 to 5 µM

# query: IC50 of entry CNCc1ccc(-c2cc[nH]n2)c(NS(=O)(=O)c2ccccc2)c1 [IA-54]
1 to 5 µM

For the compound CNCc1ccc(-n2cccn2)c(NS(=O)(=O)c2ccccc2)c1 [IQ-2] , what IC50 is on record?
1 to 5 µM

IC50 lookup needed for CCC(N)c1ccc(NS(=O)(=O)c2ccccc2)c(-c2ccco2)c1 (stereo not shown) [IU-3] , thanks.
< 1 µM

Fill in: IC50 of NC(Cc1ccccc1)c1ccc(NS(=O)(=O)c2ccccc2)c(-c2ccco2)c1 (stereo not shown) [IU-8] is ___
10 to 20 µM

Given the compound CNCc1ccc(-c2ccco2)cc1NS(=O)(=O)c1ccccc1 [IA-40] , what is its reported IC50?
50 to 100 µM

What IC50 value was documented for this compound, CNCc1ccc(NS(=O)(=O)c2ccc(F)cc2)c(-c2ccco2)c1 [IA-27] ?
1 to 5 µM

# query: IC50 of entry CN(c1ccc(CN)cc1-c1ccco1)S(=O)(=O)c1ccsc1 [IF]
< 1 µM

###

- STUDY TARGET: mTRPA1 (Mus musculus)
- Construct: expressed in transfected cells
- TEST SUMMARY: IonWorks Barracuda (IWB) automated patch clamp, TRPA1 inhibitory activity
- Format: cell-based
- RECORDED CONDITIONS: HEK293 cells stably expressing mTRPA1, current induced by AITC, amplitude at +100 mV; read-out: IC50 (inhibition activity on TRPA1)
MEASURED METRIC: IC50

Worked cases, answers included:
>>> value("CNCc1ccc(-n2ccnn2)c(NS(=O)(=O)c2ccccc2)c1")
"5 to 10 µM"
>>> value("CNC(C)c1ccc(NS(=O)(=O)c2ccccc2)c(-c2ccco2)c1 (stereo not shown)")
"1 to 5 µM"
>>> value("CNCc1ccc(-c2ccco2)c(NS(=O)(=O)c2ccc(OC(F)(F)F)cc2)c1")
"20 to 50 µM"

Fill in: IC50 of CNCc1ccc(-c2ccco2)c(NS(=O)(=O)c2ccccc2OC(F)(F)F)c1 is ___
10 to 20 µM

So what does the record say about IC50 for NCc1ccc(NS(=O)(=O)c2ccsc2)c(-c2cc[nH]n2)c1 ?
1 to 5 µM

Requested read-out: IC50. Entry: CNCc1ccc(-c2ccco2)c(NS(=O)(=O)c2cccc(F)c2)c1
1 to 5 µM

Entry under review: CNCc1ccc(-c2c(C)noc2C)c(NS(=O)(=O)c2ccccc2)c1 . Reported IC50?
5 to 10 µM

Record request: IC50 value, item CNCc1ccc(-c2ccoc2)c(NS(=O)(=O)c2ccsc2)c1
1 to 5 µM

Look at this compound and give its reported IC50. CNCc1ccc(-c2ccco2)c(NS(=O)(=O)c2ccc(Cl)s2)c1
20 to 50 µM

Need IC50, item NCCc1ccc(NS(=O)(=O)c2ccsc2)c(-c2ccco2)c1
1 to 5 µM
